molecular target: PDGFRA (platelet-derived growth factor receptor alpha) (Homo sapiens); experiment: Inhibition of wild-type human partial length PDGFRA (V575 to D1002 residues) expressed in HEK293 cells assessed as residual activity at 1000 nM after 30 mins by Kinomescan method relative to control; type: cell-based; details: read-out: Activity
Sequence (P16234 whole entry, the tested form may be a part): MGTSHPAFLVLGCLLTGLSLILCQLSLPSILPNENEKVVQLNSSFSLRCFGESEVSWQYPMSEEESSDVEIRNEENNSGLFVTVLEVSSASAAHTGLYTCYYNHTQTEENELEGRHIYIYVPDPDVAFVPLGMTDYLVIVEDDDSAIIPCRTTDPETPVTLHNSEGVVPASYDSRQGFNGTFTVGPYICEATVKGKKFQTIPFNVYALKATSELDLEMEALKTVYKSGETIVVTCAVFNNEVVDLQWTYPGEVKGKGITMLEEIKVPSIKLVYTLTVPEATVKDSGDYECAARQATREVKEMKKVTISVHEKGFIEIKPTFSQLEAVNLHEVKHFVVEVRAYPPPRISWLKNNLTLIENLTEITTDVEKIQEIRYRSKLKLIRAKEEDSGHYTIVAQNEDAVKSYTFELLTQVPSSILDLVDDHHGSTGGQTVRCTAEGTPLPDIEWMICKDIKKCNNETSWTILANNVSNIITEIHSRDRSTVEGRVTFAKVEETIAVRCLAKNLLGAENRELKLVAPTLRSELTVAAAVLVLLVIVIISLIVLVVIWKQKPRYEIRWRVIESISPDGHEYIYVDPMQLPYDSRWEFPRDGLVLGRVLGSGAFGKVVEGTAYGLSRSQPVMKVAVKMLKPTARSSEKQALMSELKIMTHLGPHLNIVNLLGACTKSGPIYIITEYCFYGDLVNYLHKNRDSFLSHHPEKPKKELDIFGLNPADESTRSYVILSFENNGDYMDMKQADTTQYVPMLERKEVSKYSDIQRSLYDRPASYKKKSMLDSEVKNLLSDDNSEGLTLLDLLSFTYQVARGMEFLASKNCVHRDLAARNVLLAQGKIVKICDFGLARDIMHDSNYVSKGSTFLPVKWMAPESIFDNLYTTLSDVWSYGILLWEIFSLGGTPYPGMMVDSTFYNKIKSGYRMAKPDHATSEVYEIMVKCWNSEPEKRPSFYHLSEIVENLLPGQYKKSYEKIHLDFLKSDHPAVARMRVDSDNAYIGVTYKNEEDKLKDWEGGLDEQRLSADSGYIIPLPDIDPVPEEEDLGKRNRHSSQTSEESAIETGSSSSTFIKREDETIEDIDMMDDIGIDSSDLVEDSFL
RECORDED ENDPOINT: activity at 0.5 h, 1 µM (%)
All answers are understood in %, so give the number only.

Query: Fill in the blank: the reported activity at 0.5 h, 1 µM of COc1cc(OC)c(Cl)c(N2Cc3cnc(Nc4ccc(F)cc4)nc3N(C3CCN(C(=O)/C=C/CN(C)C)CC3)C2=O)c1Cl is ____.
Reply: 62

----------
target: Fibroblast growth factor receptor 4 (Homo sapiens, UniProt P22455); experiment: Inhibition of human recombinant His-tagged FGFR4 cytoplasmic domain ([…] residues) expressed in baculovirus using Tyr-4 peptide after 1 hr by FRET-based Z'-Lyte assay
Sequence (P22455 whole entry, the tested form may be a part): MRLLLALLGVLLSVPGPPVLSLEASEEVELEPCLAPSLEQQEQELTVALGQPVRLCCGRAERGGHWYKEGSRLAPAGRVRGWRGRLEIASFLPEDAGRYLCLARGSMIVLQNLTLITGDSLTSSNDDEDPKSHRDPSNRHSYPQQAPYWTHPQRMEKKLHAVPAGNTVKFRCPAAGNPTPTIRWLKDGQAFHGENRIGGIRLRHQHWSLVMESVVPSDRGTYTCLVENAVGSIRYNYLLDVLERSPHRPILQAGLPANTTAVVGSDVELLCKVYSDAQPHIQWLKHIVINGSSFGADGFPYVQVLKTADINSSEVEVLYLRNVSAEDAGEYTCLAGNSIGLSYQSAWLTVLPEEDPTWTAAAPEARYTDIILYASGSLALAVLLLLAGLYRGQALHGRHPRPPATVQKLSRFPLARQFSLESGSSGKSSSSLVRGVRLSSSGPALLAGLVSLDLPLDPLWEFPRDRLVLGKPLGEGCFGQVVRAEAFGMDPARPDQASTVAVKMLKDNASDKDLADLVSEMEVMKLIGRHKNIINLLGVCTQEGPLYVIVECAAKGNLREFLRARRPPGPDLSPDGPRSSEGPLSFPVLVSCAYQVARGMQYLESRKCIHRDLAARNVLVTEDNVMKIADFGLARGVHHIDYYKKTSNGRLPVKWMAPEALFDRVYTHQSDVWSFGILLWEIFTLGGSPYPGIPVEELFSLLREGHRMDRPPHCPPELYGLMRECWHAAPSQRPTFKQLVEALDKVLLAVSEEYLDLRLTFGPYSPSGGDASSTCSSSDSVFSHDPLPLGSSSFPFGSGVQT
RECORDED ENDPOINT: pIC50
Friendly reminder that pIC50 comes from taking -log10 of the concentration in mol/L.

Query: Name the recorded pIC50 for COc1cc(OC)c(Cl)c(N2Cc3cnc(Nc4ccc(F)cc4)nc3N(C3CCN(C(=O)/C=C/CN(C)C)CC3)C2=O)c1Cl .
Reply: 7.11

----------
system: PC-9; assay: Antiproliferative activity against human PC9 cells after 5 days by SRB assay; assay type: functional, cell-based; details: PC-9, 120 h
RECORDED ENDPOINT: pIC50
Just the number, please; pIC50 means minus log10 of the concentration in mol/L.

Query: Consider the compound COc1cc(OC)c(Cl)c(N2Cc3cnc(Nc4ccccc4)nc3N(C3CCN(C(=O)/C=C/CN(C)C)CC3)C2=O)c1Cl and give its measured pIC50.
Reply: 5.90

----------
target: Fibroblast growth factor receptor 1 (Homo sapiens); test: Inhibition of human recombinant His-tagged FGFR1 cytoplasmic domain (308 to 731 residues) expressed in baculovirus using Tyr-4 peptide after 1 hr by FRET-based Z'-Lyte assay
Sequence (P11362 whole entry, the tested form may be a part): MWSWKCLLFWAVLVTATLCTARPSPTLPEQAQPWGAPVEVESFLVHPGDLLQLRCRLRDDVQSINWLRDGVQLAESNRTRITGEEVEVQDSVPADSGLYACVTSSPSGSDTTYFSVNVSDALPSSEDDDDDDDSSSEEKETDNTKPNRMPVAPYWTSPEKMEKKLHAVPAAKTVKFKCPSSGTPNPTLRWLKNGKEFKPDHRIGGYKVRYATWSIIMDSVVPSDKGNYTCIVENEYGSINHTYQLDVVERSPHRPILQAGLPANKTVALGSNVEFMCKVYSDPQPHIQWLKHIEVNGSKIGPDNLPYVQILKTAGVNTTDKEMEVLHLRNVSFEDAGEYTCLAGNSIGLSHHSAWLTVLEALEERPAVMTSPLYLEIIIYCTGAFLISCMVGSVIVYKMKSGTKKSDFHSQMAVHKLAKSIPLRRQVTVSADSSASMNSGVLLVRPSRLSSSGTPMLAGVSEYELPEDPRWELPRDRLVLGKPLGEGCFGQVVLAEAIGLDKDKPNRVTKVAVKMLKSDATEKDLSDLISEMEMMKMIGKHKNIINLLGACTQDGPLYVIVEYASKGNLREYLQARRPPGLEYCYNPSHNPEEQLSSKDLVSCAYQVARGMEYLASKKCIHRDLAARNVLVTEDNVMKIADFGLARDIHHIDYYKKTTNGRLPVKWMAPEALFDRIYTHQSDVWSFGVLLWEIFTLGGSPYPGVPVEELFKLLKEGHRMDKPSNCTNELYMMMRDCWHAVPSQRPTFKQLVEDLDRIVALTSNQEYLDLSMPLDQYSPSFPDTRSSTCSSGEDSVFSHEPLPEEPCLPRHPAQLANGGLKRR
RECORDED ENDPOINT: IC50 (nM)
Give the quantity in nM, number only.

Query: Which measured IC50 value corresponds to COc1cc(OC)c(Cl)c(N2Cc3cnc(Nc4ccc(F)cc4)nc3N(C3CCN(C(=O)/C=C/CN(C)C)CC3)C2=O)c1Cl ?
Reply: 0.99
